// provenance: patent US20250368649A1

# Tested on: MKN1 cells
# Assay comment: Inhibition of KRas-mediated phosphorylation of ERK (Cisbio HTRF pERK), MKN1 cells
# Format: cell-based
# Condition: Homo sapiens, MKN-1, 3 hour compound incubation, Cisbio pERK HTRF
Measurement name: IC50 (nM)

## Input Which IC50 value belongs to `CCc1c(F)ccc2cccc(N3CCc4c(nc(OC[C@@]56CCCN5C[C@H](F)C6)nc4N4CCCn5nc(C(=O)N(C)C)cc5C4)C3)c12` ?
## Output 480

1: CCc1c(F)ccc2cc(O)cc(N3CCc4c(nc(OC[C@@]56CCCN5C[C@H](F)C6)nc4N4CCCn5nc(N)c(Cl)c5C4)C3)c12
2: CCc1c(F)ccc2cc(O)cc(N3CCc4c(nc(OC[C@@]56CCCN5C[C@H](F)C6)nc4N4CCCn5nc(C(=O)N(CC)CC)cc5C4)C3)c12
## Input Lab note: check whether 1 or 2 shows the higher recorded IC50. Let me know the label of the one you choose.
## Output 1
(1: 20.6 nM, 2: 9.6 nM)

I: Oc1cc(N2CCc3c(nc(OC[C@@]45CCCN4C[C@H](F)C5)nc3N3CCCC4(CCSC4)C3)C2)c2c(Cl)c(F)ccc2c1 (stereo partly drawn)
II: CCc1c(F)ccc2cc(O)cc(N3CCc4c(nc(OC[C@@]56CCCN5C[C@H](F)C6)nc4N4CCCCn5nc(C(=O)N(C)C)cc5C4)C3)c12
## Input Field: lower recorded IC50 (choose I or II ) Let me know the label of the one you choose.
## Output II
